Biological target: GABA B receptor (Rattus norvegicus) (UniProt Q9Z0U4+O88871)
Assay: Displacement of [3H]GABA from GABA-B binding sites in brain homogenates (relative to 100 uM baclofen) at 100 uM
Type: tissue-based
assay.metric: inhibition (%)
Number only, in %; omit the unit.

The value of inhibition measured for the molecule `Nc1cccc(P(=O)(Oc2ccccc2)Oc2ccccc2)c1` turned out to be 51

Item: `CCOP(=S)(OCC)Oc1ccccc1NC(C)=O` | inhibition: 35

Entry CC1(C)COP(=S)(c2ccccc2)N1 (stereo not given) — recorded inhibition = 15

// inhibition lookup, molecule = `CC(C)(C)CC(C)(C)NP(=O)(Oc1ccccc1)Oc1ccccc1` , result: 65

Per the record, `CC(=O)Nc1ccccc1OP(=O)(Oc1ccccc1)Oc1ccccc1` has inhibition of 36

The molecule `NCCOP(=O)(O)Oc1ccccc1` showed inhibition equal to 40

FYI, the data here is from ChEMBL document CHEMBL1122654.
